# Target Desc: DRB1*0301 (Homo sapiens, UniProt P01903+P01911, A100K/A102G/A103R/A169T/F55Y/I96L/K41T/L162R/M171V/P40S/Q125H/Q178H/Q39Y/R42S/S66N/T106N/T262R/W38E/Y61H)
# Sequence (P01903 26-254 limits assumed, other chains not shown): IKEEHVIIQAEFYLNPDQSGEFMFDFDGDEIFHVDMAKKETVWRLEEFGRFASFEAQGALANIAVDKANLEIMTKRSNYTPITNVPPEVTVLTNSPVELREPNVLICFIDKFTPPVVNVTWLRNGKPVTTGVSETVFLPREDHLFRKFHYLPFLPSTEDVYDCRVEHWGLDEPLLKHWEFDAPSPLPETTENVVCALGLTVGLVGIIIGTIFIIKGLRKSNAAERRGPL
# Assay Overview: biochemical
Please provide measured IC50 for the entries that follow.
Answers are plain numbers, in µM.

[[record]]
compound = "CC[C@H](C)[C@H](NC(=O)[C@H](Cc1c[nH]cn1)NC(=O)[C@H](C)NC(=O)[C@H](Cc1ccc(O)cc1)NC(=O)[C@H](CC(C)C)NC(=O)[C@@H](NC(=O)[C@H](C)NC(=O)[C@@H]1CCCN1C(=O)[C@H](CCCCN)NC(=O)[C@@H](NC(=O)[C@H](CC(C)C)NC(=O)[C@@H](NC(=O)[C@H](CCCCN)NC(=O)[C@@H](N)Cc1ccccc1)[C@@H](C)O)[C@@H](C)CC)[C@@H](C)O)C(=O)N[C@@H](CCC(N)=O)C(=O)O [Peptide 89.0082]"
recorded_result = 0.825


Lab book: IC50 of CC[C@H](C)[C@H](NC(=O)[C@H](C)NC(=O)[C@@H](NC(=O)[C@@H](NC(=O)[C@H](CC(N)=O)NC(=O)[C@H](CC(C)C)NC(=O)[C@H](Cc1ccccc1)NC(=O)[C@H](CCCCN)NC(=O)[C@@H](NC(=O)[C@H](CCCNC(=N)N)NC(=O)[C@H](CCC(N)=O)NC(=O)[C@H](CCCCN)NC(=O)[C@@H](N)CCC(=O)O)[C@@H](C)O)[C@@H](C)O)C(C)C)C(=O)N1CCC[C@H]1C(=O)N[C@@H](CC(=O)O)C(=O)O [Peptide 1601.19] noted as 11.8
